Test system: Providencia stuartii
experiment description: Antibacterial activity tested against Providencia stuartii CNUR 5
Assay type: functional
recorded endpoint: MIC (µg/mL)

molecule: Cc1c(N2CCCCCC2)c(N)cc2c(=O)c(C(=O)O)cn(C3CC3)c12
test system: Providencia stuartii
unit name: µg/mL
MIC: 0.5

molecule: Cc1c(N2CCN(C)CC2)c(N)cc2c(=O)c(C(=O)O)cn(-c3ccc(F)cc3)c12
test system: Providencia stuartii
unit name: µg/mL
MIC: 16

a = Nc1cc2c(=O)c(C(=O)O)cn(C3CC3)c2cc1N1CCc2ccccc2C1
b = CC1CN(c2cc3c(cc2N)c(=O)c(C(=O)O)cn3C2CC2)CCS1 (stereo not given)
Q: Could you tell me which of these two has the smaller MIC figure? First: a Second: b Reply with the label of the item you choose.
Ans: b
(b: 1 µg/mL, a: 128 µg/mL)

A = CC1CN(c2cc3c(cc2N)c(=O)c(C(=O)O)cn3C2CC2)CC(C)(C)N1 (stereo not given)
B = Cc1c(N2CC(C)OC(C)C2)c(N)cc2c(=O)c(C(=O)O)cn(C3CC3)c12 (stereo not given)
C = Cc1c(N2CCCC2)c(N)cc2c(=O)c(C(=O)O)cn(C3CC3)c12
Q: Arrange these molecules by their MIC, starting with the largest number. Present the labels in the sequence the task asks for.
Ans: C, A, B

A = Nc1cc2c(=O)c(C(=O)O)cn(C3CC3)c2cc1N1CCCC1
B = CN1CCN(c2c(N)cc3c(=O)c(C(=O)O)cn(C4CC4)c3c2F)CC1
Q: Would you let me know which has the greater MIC value, A or B ? Reply with the label of the item you choose.
Ans: A

A = Cc1c(N2CCc3ccccc3C2)c(F)cc2c(=O)c(C(=O)O)cn(C3CC3)c12
B = CNc1cc2c(=O)c(C(=O)O)cn(C3CC3)c2c(C)c1N1CCC(C)CC1
Q: Would you let me know which has the greater MIC value, A or B ? Reply with the label of the item you choose.
Ans: B
(B: 16 µg/mL, A: 2 µg/mL)

Values from ChEMBL document CHEMBL1129660
